- protocol_text: NCI Yeast Anticancer Drug Screen. Data for the rad50 strain (AID 155);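 further: 0% = growth of vehicle-only cultures of the same strain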
- measurement_conditions: S. cerevisiae rad50 strain growth inhibition; at 50.0 µM
- Description: Growth inhibition of yeast strains with defined genetic alterations is measured as a screen for potential anti-cancer activity. Selected strains with alterations in DNA damage repair or cell cycle control were exposed to compounds and growth inhibition was measured relative to vehicle treated controls. The strain used in this assay is rad50
Compounds without any hit were thinned out: in the full panel of roughly 79,000, 15% have a hit. Activity calls are given as the source filed them. No stated cut-off is given here; in the data, active means growth inhibition above about 70%; inactive means the rest.
Could you please pick one outcome from this set? active, inactive

Below, 3 molecules whose answers are already recorded.
molecule=Brc1cccc2ccc3ccccc3c12 assigned_class=inactive
molecule=NC1=NS(=O)(=O)Nc2nc(-c3ccc(Cl)cc3)c(-c3ccc(Cl)cc3)nc21 assigned_class=inactive
molecule=CCCCCCCCCCCCCCCCCC[N+]1(C)CCOCC1 assigned_class=active

Q: Tell me the assay call for CC(C)(C)NC(=O)CCC(=O)O please.
Result: inactive

Q: Returns: the outcome recorded for CC(=O)c1cccc(NC(=O)Nc2cccc(C)n2)c1 in this assay.
Result: inactive

Q: // return assay outcome for CC(=O)OCC1OC(n2nc(/C=C/c3ccccc3)c(=O)n(-c3ccccc3)c2=S)C(OC(C)=O)C(OC(C)=O)C1OC(C)=O (stereo not drawn)
Result: inactive

Q: Write down the call the test reported for this molecule. Item: CC(=O)NC(CCCCNC(=O)OC(C)(C)C)C(=O)O (stereo not drawn)
Result: inactive

* * *

- protocol_text: NCI Yeast Anticancer Drug Screen. Data for the mlh1 rad18 strain (AID 175)
- measurement_conditions: S. cerevisiae mlh1 rad18 strain growth inhibition; at 50.0 µM; hits give high values
Compounds without any hit were thinned out: in the full panel of roughly 79,000, 15% have a hit.
Record form. Attribute: growth inhibition. Fill in for each entry.
One number for each entry, in %.

Completed entries (count: 2):
compound=CN1CCN(Cc2cc(C(C)(C)C)cc(-c3ccccc3)c2O)CC1 value_kind="growth inhibition" experimental_value=25.6
compound="COc1cc(C2c3cc4c(cc3OC3(OC)COC(=O)C23)OCO4)cc(OC)c1OC (centres undefined)" value_kind="growth inhibition" experimental_value=-21.4

Quick batch: growth inhibition for everything below.
1. COc1ccc(NC(=O)Oc2ccccc2-c2ccccc2)cc1
2. CCCCCC(O)C(C)C (centres undefined)

Result:
[-12.3, 6.8]

Below are some compounds; for each one, tell me its growth inhibition.
1. CCCCONC(N)=O
2. O=C1CCCc2cc3c(cc21)CC1(Cc2ccccc2C1)C3

Result:
1: -5.95; 2: -14.7

Kindly give each listed record's growth inhibition.
1. O=c1/c(=C2\Cc3cccc4cccc2c34)c2cccc3cccc1c32
2. COc1ccc(C2N(NC(=O)c3ccncc3)C(=O)CS2(=O)=O)cc1F (centres undefined)
3. COc1cc(OC)c(OCc2ccccc2)c(OC)c1

Result:
1: -15.2; 2: 0.95; 3: -17.2

* * *

- protocol_text: NCI Yeast Anticancer Drug Screen. Data for the mec2-1 strain (AID 157)
- measurement_conditions: S. cerevisiae mec2-1 strain, at 50.0 µM, hits give high values
Compounds without any hit were thinned out: in the full panel of roughly 79,000, 15% have a hit.
value_kind: growth inhibition (%)
Answers are plain numbers, in %.

Reference set, count: 3
compound="CC(C)CCCC(C)C1CCC2C1CCC1C2CCC2(C)CCC(=O)CCC12C (centres undefined)" value_kind="growth inhibition" experimental_value=-2.85
compound="O=C1c2ccccc2C(=O)N1CC(O)COc1cccc2ccccc12 (centres undefined)" value_kind="growth inhibition" experimental_value=-79.5
compound=CNCc1ccccc1[N+](=O)[O-] value_kind="growth inhibition" experimental_value=-3.95

Q: # lookup: growth inhibition of COc1nc2[nH]c(C)cc(=O)c2c2ccccc12
Result: 14.8

Values from PubChem BioAssay (NCI)
